- Target of assay: HaloTag-ING2 PHD (mouse Ing2 200-280)
- Assay remarks: peptide microarray binding signal (635 nm), min-max normalized on array (fraction of array maximum); higher = stronger binding
- Settings: peptide region: Unmod H2A variant; binder concentration: 100 nM
Observation type: peptide microarray binding signal
Please state the value as a number alone, without comment.

What value of measured peptide microarray binding signal is listed for DNKKTRIIPRHLQ [Unmod H2A variant D N K K T R I I P R H L Q] ? 0.0078

What value of measured peptide microarray binding signal is listed for GAGAPVYMAAVLE [Unmod H2A variant G A G A P V Y M A A V L E] ? 0.0205

Let's switch to this binder now.
What value of measured peptide microarray binding signal is listed for QGGKARAKSKSRS [Unmod H2A variant Q G G K A R A K S K S R S] ? 0.0201
